Where do the numbers come from? From the supplement of paper PMC12042874.

Assay: amyloid nucleation score (Sup35N fusion, yeast selection) (log enrichment); library NNK1; higher = more nucleation; inactive = no reads after selection;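 note: zero at mode of non-aggregating sequences after 7 days selection at 30°C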
value-kind: amyloid nucleation score

{"columns": ["residue-codes", "value-kind", "val"],
 "data": [
  ["LCSFKFSVRPLCKKRFKVRV", "amyloid nucleation score", 0.099],
  ["MGGVMAVLFRIMLGVIF", "amyloid nucleation score", "inactive"],
  ["CRLYVVGFFKKL", "amyloid nucleation score", "inactive"],
  ["IFTTSNQSEGRGVPAGNPNL", "amyloid nucleation score", "inactive"]
]}

---

Experiment: amyloid nucleation score (Sup35N fusion, yeast selection) (log enrichment); library NNK1; higher = more nucleation; inactive = no reads after selection
Classification field: enter MET for amyloid nucleation score values not below 0.2, NOT MET for values below it.

{"columns": ["residue-codes", "cat"],
 "data": [
  ["RLGTSAMRCQP", "NOT MET"],
  ["AFNGTSAGMCKWGACTEWCV", "NOT MET"],
  ["SSDGVSMLC", "MET"],
  ["TIQPRRWYVYSKQFLWNLCC", "MET"],
  ["RGEVHSIWTPPLHKGQEMGI", "NOT MET"],
  ["TRGVGYFIREIFGS", "MET"],
  ["VHCHMEITSWLGRRS", "MET"]
]}
